Entries and their measured LD50 at 168 h follow.
Assay: Orientative acute toxicity (Irwin's observational assessment of mouse behavior, 7 days observation)
Details: in vivo, po, after 7 days observation
Please answer using the number first and the unit second.

These solved cases illustrate the format of a correct answer.
>>> reported_result("CN1C[C@H](CN2CC(=O)NC(=O)C2)C=C2c3cccc4[nH]cc(c34)C[C@H]21")
"200 mg/kg"
>>> reported_result("CN1C[C@H](CN2CC(=O)NC(=O)C2)C[C@@H]2c3cccc4c3c(cn4C)C[C@H]21")
"300 mg/kg"
>>> reported_result("CN1C(=O)CN(C[C@@H]2C[C@@H]3c4cccc5[nH]cc(c45)C[C@H]3N(C)C2)CC1=O")
"300 mg/kg"

Continue with the next molecule.
Report LD50 at 168 h for `CN1C[C@H](CN2CC(=O)NC(=O)C2)C[C@@H]2c3cccc4[nH]cc(c34)C[C@H]21` please.
600 mg/kg

* * *

Test system: central apomorphine-induced climbing
Test: Antagonism to central apomorphine-induced climbing (stereotypes) in mice
Format: in vivo
Details: Mus musculus, po; male mice; 60 minutes before 1 mg/kg s.c. apomorphine HCl; evaluated 10 minutes after apomorphine
ED50: recorded values
State just the number; it will be interpreted in mg/kg.

>>> reported_result("CN1C[C@H](CN2CC(=O)NC(=O)C2)C[C@@H]2c3cccc4[nH]cc(c34)C[C@H]21")
4.4
>>> reported_result("CN1C[C@H](CN2CC(=O)NC(=O)C2)C=C2c3cccc4[nH]cc(c34)C[C@H]21")
0.5
>>> reported_result("CN1C(=O)CN(C[C@@H]2C[C@@H]3c4cccc5[nH]cc(c45)C[C@H]3N(C)C2)CC1=O")
2.2

For the next question, use this molecule.
For the molecule `CN1C[C@H](CN2CC(=O)NC(=O)C2)C[C@@H]2c3cccc4c3c(cn4C)C[C@H]21` , what ED50 is on record?
0.9
